Target: Full length DGKα (D21-10BG, SignalChem) (Homo sapiens, UniProt P23743)
Sequence (P23743 whole entry): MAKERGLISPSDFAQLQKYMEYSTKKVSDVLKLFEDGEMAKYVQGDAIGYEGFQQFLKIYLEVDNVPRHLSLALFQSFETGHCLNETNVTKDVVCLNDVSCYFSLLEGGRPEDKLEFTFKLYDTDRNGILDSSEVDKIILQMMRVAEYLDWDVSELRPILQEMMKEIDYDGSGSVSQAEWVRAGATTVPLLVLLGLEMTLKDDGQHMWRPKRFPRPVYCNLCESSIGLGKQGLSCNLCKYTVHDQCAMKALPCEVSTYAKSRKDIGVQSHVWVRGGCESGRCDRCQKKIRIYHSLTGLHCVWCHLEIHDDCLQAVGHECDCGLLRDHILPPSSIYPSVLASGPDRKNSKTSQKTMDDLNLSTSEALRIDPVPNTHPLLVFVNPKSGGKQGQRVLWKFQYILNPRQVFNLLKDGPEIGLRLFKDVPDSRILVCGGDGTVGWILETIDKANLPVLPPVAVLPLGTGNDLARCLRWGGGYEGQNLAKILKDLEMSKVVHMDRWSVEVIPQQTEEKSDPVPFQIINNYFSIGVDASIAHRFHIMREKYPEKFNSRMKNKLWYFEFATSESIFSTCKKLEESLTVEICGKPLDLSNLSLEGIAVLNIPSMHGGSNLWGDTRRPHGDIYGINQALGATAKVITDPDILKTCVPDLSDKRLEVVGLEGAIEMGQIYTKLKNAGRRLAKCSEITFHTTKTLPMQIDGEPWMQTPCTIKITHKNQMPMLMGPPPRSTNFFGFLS
Observed property: IC50 (nM)

Sample answers from the record:
| Compound | Observed property | Reading |
| --- | --- | --- |
| CC[C@H]1CN(C(CCOC)c2ccc3nc(C)sc3c2)[C@H](CC)CN1c1cc(=O)n(C)n2cc(CC#N)nc12 (single isomer, unassigned) [Compound A102b] | IC50 | 735 |
| CC[C@H]1CN(C(C)c2ccc3nc(C)sc3n2)[C@H](CC)CN1c1cc(=O)n(C)n2cc(C=NOC)nc12 (single isomer, unassigned) [Compound A124a] | IC50 | 2000 |
| [2H]C([2H])([2H])n1c(=O)cc(N2C[C@@H](CC)N(C(C)c3ccc4nc(C)sc4c3)C[C@@H]2CC)c2nc(CC#N)cn21 (single isomer, unassigned) [Compound A94a] | IC50 | 108 |
| CCC(c1ccc2nc(C)sc2n1)N1C[C@H](CC)N(c2cc(=O)n(C)n3cc(CC#N)nc23)C[C@H]1C (single isomer, unassigned) [Compound A98a] | IC50 | 712 |
| CCC(c1ccc2nc(C)sc2n1)N1C[C@H](CC)N(c2cc(=O)n(C)n3cc(CC#N)nc23)C[C@H]1CC (single isomer, unassigned) [Compound A99a] | IC50 | 196 |
| CC[C@H]1CN(C(C)c2cc3sc(C)nc3cc2F)[C@H](CC)CN1c1cc(=O)n(C)n2cc(CC#N)nc12 (single isomer, unassigned) [Compound A61a] | IC50 | 400 |
| CC[C@H]1CN(C(C)c2ccc3nc(C)sc3n2)[C@H](CC)CN1c1c(F)c(=O)n(C)n2cc(CC#N)nc12 (single isomer, unassigned) [Compound A82a] | IC50 | 26 |
| CC[C@H]1CN(C(C)c2ccc(C(F)(F)F)cc2)[C@H](CC)CN1c1cc(=O)n(C)n2cc(CC#N)nc12 (single isomer, unassigned) [Compound A91a] | IC50 | 155 |
| CC[C@@H]1CN(c2cc(=O)n(C)n3cc(CC#N)nc23)[C@@H](C)CN1C(C)c1cc2sc(C)nc2cc1F (single isomer, unassigned) [Compound A60a] | IC50 | 826 |

[A] CC[C@@H]1CN(c2cc(=O)n(C)n3cc(CC#N)nc23)[C@@H](C)CN1C(C)c1ccc2nc(C)sc2c1F (single isomer, unassigned) [Compound A63a]
[B] CC[C@H]1CN(C(C)c2ccc(C(F)(F)F)cc2)[C@H](CC)CN1c1cc(=O)n(C)n2cc(CC#N)nc12 (single isomer, unassigned) [Compound A91b]
# query: argmin of IC50 over A and B Respond using the label that marks the chosen record.
B

----------
Target: Full length DGKα (D21-10BG, SignalChem) (Homo sapiens)
Observed property: IC50 (nM)

| Compound | Assay system | Reading |
| --- | --- | --- |
| CC[C@H]1CN(C(C)c2ccc3nc(C)sc3n2)[C@H](CC)CN1c1c(C#N)c(=O)n(C)n2cc(CC#N)nc12 (single isomer, unassigned) [Compound A112a] | Full length DGKα (D21-10BG, SignalChem) (Homo sapiens) | 752 |
| [2H]C([2H])([2H])C(c1ccc2nc(C)sc2c1)N1C[C@H](CC)N(c2cc(=O)n(C([2H])([2H])[2H])n3cc(CC#N)nc23)C[C@H]1CC (single isomer, unassigned) [Compound A95a] | Full length DGKα (D21-10BG, SignalChem) (Homo sapiens) | 101 |
| CC[C@@H]1CN(c2cc(=O)n(C)n3cc(CC#N)nc23)[C@@H](C)CN1C(C)c1ccc(C(F)(F)F)cc1F (single isomer, unassigned) [Compound A17b] | Full length DGKα (D21-10BG, SignalChem) (Homo sapiens) | 823 |
| CC[C@@H]1CN(c2c(C#N)c(=O)n(C)n3cc(CC#N)nc23)[C@@H](C)CN1C(C)c1ccc(C2CC2)nc1 (single isomer, unassigned) [Compound A74a] | Full length DGKα (D21-10BG, SignalChem) (Homo sapiens) | 682 |

[P] CC[C@H]1CN(C(C)c2ccc(C3CC3)nc2)[C@H](CC)CN1c1c(F)c(=O)n(C)n2cc(CC#N)nc12 (single isomer, unassigned) [Compound A73b]
[Q] CC[C@@H]1CN(c2c(C#N)c(=O)n(C)n3cc(CC#N)nc23)[C@@H](C)CN1C(C)c1ccc(C2CC2)nc1 (single isomer, unassigned) [Compound A74b]
[R] CC[C@H]1CN(C(C)c2cc3sc(C)nc3cc2F)[C@H](CC)CN1c1cc(=O)n(C)n2cc(CC#N)nc12 (single isomer, unassigned) [Compound A61b]
Put the compounds in ascending order of IC50. Your reply should list the labels following the order given in the request.
P, Q, R
